Target: non-opioid (naloxone-insensitive) receptors for β-endorphin on T lymphocytes from normal human blood (human)
Experiment: radioligand saturation binding on human T lymphocytes, Scatchard analysis, one-site model
measured_quantity: pKd
Scale note: pKd = -log10(concentration in M).

Tell me measured pKd for H-VKGFY-OH (also: 125I label, residue not given here) [[125I]-H-VKGFY-OH] please. 7.44

These entries and their values trace back to patent US7326684B2.
